Each entry below carries its reported MIC.
Test system: B. subtilis ATCC 23857
Experiment: Minimal inhibitory concentration, microbroth dilution
Assay type: cell-based
Conditions: Bacillus subtilis, ATCC23857, read-out: Minimal Inhibitory Concentration B. subtilis ATCC 23857
Record the value in µM, omitting the unit from your answer.

For orientation, consider the following solved cases.
C[C@@H]1C[C@H]2C(=O)OC[C@H](NC(=O)[C@H](Cc3ccccc3)NC(=O)Nc3ccc(Cl)cc3)C(=O)N3CCC[C@H]3C(=O)N3CCCC[C@H]3C(=O)N[C@@H](C)C(=O)N2C1
0.78
C[C@@H]1C[C@H]2C(=O)OC[C@H](NC(=O)[C@H](Cc3ccccc3)NC(=O)Nc3cccc(Cl)c3)C(=O)N3CCC[C@H]3C(=O)N3CCCC[C@H]3C(=O)N[C@@H](C)C(=O)N2C1
1.56

Let us examine a further case.
I have this compound here, C[C@@H]1C[C@H]2C(=O)OC[C@H](NC(=O)[C@H](Cc3ccccc3)NC(=O)Nc3ccccc3)C(=O)N3CCC[C@H]3C(=O)N3CCCC[C@H]3C(=O)N[C@@H](C)C(=O)N2C1 , and I need its recorded MIC.
1.56

* * *

Molecular target: S. aureus ClpP (Sa-ClpP) (Staphylococcus aureus)
Construct: made in house; host or cells: E. coli BL21 (DE3)
Assay: ClpP activation, casein-BODIPY digestion assay (first described method)
Type: biochemical
Conditions: first described ClpP activation assay (**); 10 μM saClpP, 25 μg/ml BODIPY FL casein, 37° C.; read-out: ClpP Activation EC50
Protocol: The compounds were assayed in a casein digestion assay in order to determine their effect on ClpP activation. Briefly, the assay was carried out using S. aureus ClpP (“Sa-ClpP”) overexpressed in E. coli BL21 (DE3) and purified in a two-step process. Purity of the protein was assessed through SDS PAGE analysis. […] Velocity of each reaction was calculated and data was fit to a dose response curve using GraphPad Prism® software (GraphPad Software, Inc., La Jolla, Calif.). […]
*1 amine or outer side, *2 acyl side, *3 side chain or, on linkers, in order; H or OH if unused. Where a SMILES comes first, the peptide text is derived from it. Bridges are numbered along the chain shown (N, C = ends). [ ]: non-standard residue; d: D form. The star is where a group is joined. Phe(3,5-F2) = N[C@@H](Cc1cc(F)cc(F)c1)C(=O)O; Pro(4S-Me) = C[C@@H]1CN[C@H](C(=O)O)C1; NH(4-Et-phenyl) = CCc1ccc(N*)cc1; aThr = C[C@H](O)[C@H](N)C(=O)O; Pip = O=C(O)[C@@H]1CCCCN1; CO = O=C([*:1])[*:2]
Values of EC50 strictly less than 2 µM map to label 1, and values of at least 2 µM map to label 0.

Would you please look over these solved cases?
CCc1ccc(NC(=O)N[C@@H](Cc2cc(F)cc(F)c2)C(=O)N[C@H]2COC(=O)[C@@H]3C[C@@H](C)CN3C(=O)[C@H](C)NC(=O)[C@@H]3CCCCN3C(=O)[C@@H]3CCCN3C2=O)cc1
label 0
C[C@@H]1C[C@H]2C(=O)OC[C@H](NC(=O)[C@H](Cc3cc(F)cc(F)c3)NC(=O)Nc3ccc(OC(F)(F)F)cc3)C(=O)N3CCC[C@H]3C(=O)N3CCCC[C@H]3C(=O)N[C@@H](C)C(=O)N2C1
label 0
CCc1cccc(NC(=O)N[C@@H](Cc2ccccc2)C(=O)N[C@H]2COC(=O)[C@@H]3C[C@@H](C)CN3C(=O)[C@H](C)NC(=O)[C@@H]3CCCCN3C(=O)[C@@H]3CCCN3C2=O)c1
label 1
CCc1ccc(NC(=O)N[C@@H](Cc2cc(F)cc(F)c2)C(=O)N[C@@H]2C(=O)N3CCC[C@H]3C(=O)N3CCCC[C@H]3C(=O)N[C@@H](C)C(=O)N3C[C@@H](C)C[C@H]3C(=O)O[C@H]2C)cc1 [Compound 21] ({NH(4-Et-phenyl)-CO}-[Phe(3,5-F2)][aThr]P[Pip]A[Pro(4S-Me)]; ester 2-C)
label 1

Query compound follows.
In plain terms, does C[C@@H]1C[C@H]2C(=O)OC[C@H](NC(=O)[C@H](Cc3ccccc3)NC(=O)Nc3ccc(N(C)C)cc3)C(=O)N3CCC[C@H]3C(=O)N3CCCC[C@H]3C(=O)N[C@@H](C)C(=O)N2C1 come in under 2 µM for EC50?
label 1

* * *

Biological target: Sa-ClpP (Staphylococcus aureus, UniProt Q2G036)
Construct: made in house; host or cells: E. coli BL21 (DE3)
Sequence (Q2G036 whole entry): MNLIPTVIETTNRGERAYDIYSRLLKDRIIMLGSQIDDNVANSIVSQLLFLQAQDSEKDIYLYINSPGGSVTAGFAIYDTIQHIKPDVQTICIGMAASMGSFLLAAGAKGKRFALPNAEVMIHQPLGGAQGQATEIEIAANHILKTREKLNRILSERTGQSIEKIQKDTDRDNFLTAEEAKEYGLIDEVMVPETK
Test: ADEP displacement fluorescence polarization assay
Type: binding, S. aureus
Settings: 1 μM Sa-ClpP, 50 nM FP probe ADEP 2591; read-out: ADEP Displacement IC50
Each entry below carries its reported log10 of IC50.
Parameter value (number): base-10 log of IC50 in µM.

For orientation, consider the following solved cases.
COc1ccc(NC(=O)N[C@@H](Cc2ccccc2)C(=O)N[C@H]2COC(=O)[C@@H]3C[C@@H](C)CN3C(=O)[C@H](C)NC(=O)[C@@H]3CCCCN3C(=O)[C@@H]3CCCN3C2=O)cc1 [Compound 6]
1.44
Cc1ccc(NC(=O)N[C@@H](Cc2cc(F)cc(F)c2)C(=O)N[C@H]2COC(=O)C3C[C@@H](F)CN3C(=O)[C@H](C)NC(=O)C3CCCCN3C(=O)C3CCCN3C2=O)cc1 (stereo partly shown) [Compound 51]
0.99
Cc1ccc(NC(=O)N[C@@H](Cc2cc(F)cc(F)c2)C(=O)N[C@H]2COC(=O)C3CC(C)(C)CN3C(=O)[C@H](C)NC(=O)C3CCCCN3C(=O)C3CCCN3C2=O)cc1 (stereo partly shown) [Compound 49]
1.10
C[C@@H]1C[C@H]2C(=O)OC[C@H](NC(=O)[C@H](Cc3ccccc3)NC(=O)Nc3ccc(N(C)C)cc3)C(=O)N3CCC[C@H]3C(=O)N3CCCC[C@H]3C(=O)N[C@@H](C)C(=O)N2C1 [Compound 5]
1.45

I have this compound here, Cc1ccc(NC(=O)N[C@@H](Cc2cc(F)cc(F)c2)C(=O)N[C@H]2COC(=O)C3C[C@H](C)CN3C(=O)[C@H](C)NC(=O)C3CCCCN3C(=O)C3CCCN3C2=O)cc1 (stereo partly shown) [Compound 45] , and I need its recorded log10 of IC50.
0.82

I have this compound here, Cc1ccc(NC(=O)N[C@@H](Cc2cc(F)cc(F)c2)C(=O)N[C@@H]2C(=O)N3CCCC3C(=O)N(C)[C@@H](C)C(=O)N[C@@H](C)C(=O)N3C[C@@H](C)CC3C(=O)O[C@H]2C)cc1 (stereo partly shown) [Compound 26] , and I need its recorded log10 of IC50.
0.91

I have this compound here, C[C@@H]1C[C@H]2C(=O)OC[C@H](NC(=O)[C@H](Cc3cc(F)cc(F)c3)NC(=O)Nc3ccc(OC(F)(F)F)cc3)C(=O)N3CCC[C@H]3C(=O)N3CCCC[C@H]3C(=O)N[C@@H](C)C(=O)N2C1 [Compound 13] , and I need its recorded log10 of IC50.
0.76

I have this compound here, CCc1ccc(NC(=O)N[C@@H](Cc2cc(F)cc(F)c2)C(=O)N[C@H]2COC(=O)[C@@H]3C[C@@H](C)CN3C(=O)[C@H](C)NC(=O)[C@@H]3CCCCN3C(=O)[C@@H]3CCCN3C2=O)cc1 [Compound 14] , and I need its recorded log10 of IC50.
1.79

I have this compound here, COc1cccc(NC(=O)N[C@@H](Cc2ccccc2)C(=O)N[C@H]2COC(=O)[C@@H]3C[C@@H](C)CN3C(=O)[C@H](C)NC(=O)[C@@H]3CCCCN3C(=O)[C@@H]3CCCN3C2=O)c1 [Compound 8] , and I need its recorded log10 of IC50.
1.21

I have this compound here, CCc1cccc(NC(=O)N[C@@H](Cc2ccccc2)C(=O)N[C@H]2COC(=O)[C@@H]3C[C@@H](C)CN3C(=O)[C@H](C)NC(=O)[C@@H]3CCCCN3C(=O)[C@@H]3CCCN3C2=O)c1 [Compound 10] , and I need its recorded log10 of IC50.
1.13

* * *

Biological target: Sa-ClpP (Staphylococcus aureus)
Construct: made in house; host or cells: E. coli BL21 (DE3)
Assay: ADEP displacement fluorescence polarization assay
Assay type: binding, S. aureus
Settings: 1 μM Sa-ClpP, 50 nM FP probe ADEP 2591; read-out: ADEP Displacement IC50
result-type: pIC50
Interpret pIC50 as the negative base-10 log of the concentration measured in mol/L.

For orientation, consider the following solved cases.
Cc1ccc(NC(=O)N[C@@H](Cc2cc(F)cc(F)c2)C(=O)N[C@H]2COC(=O)C3C[C@H](C)CN3C(=O)[C@H](C)NC(=O)C3CCCCN3C(=O)C3CCCN3C2=O)cc1C (stereo partly drawn) [Compound 48]
5.09
Cc1ccc(NC(=O)N[C@@H](Cc2cc(F)cc(F)c2)C(=O)N[C@@H]2C(=O)N3CCCC3C(=O)N3CCOCC3C(=O)N[C@@H](C)C(=O)N3C[C@H](C)CC3C(=O)O[C@H]2C)cc1 (stereo partly drawn) [Compound 47]
5.15

Let us examine a further case.
I have this compound here, Cc1ccc(NC(=O)N[C@@H](Cc2cc(F)cc(F)c2)C(=O)N[C@@H]2C(=O)N3CCCC3C(=O)N3CCCCC3C(=O)N[C@@H](C)C(=O)N3C[C@H](C)CC3C(=O)O[C@H]2C)cc1 (stereo partly drawn) [Compound 39] , and I need its recorded pIC50.
5.05
